molecular target: CYP46A1 (Homo sapiens); test: In vitro IC50 and Ki for CYP46A1-catalysed hydroxylation; format: biochemical; design: Recombinant full-length human CYPs 46A1 and 27A1 and bovine CYP11A1 were expressed and purified; made in house; settings: read-out: IC50 for 25- and 27-hydroxylations of 24S-hydroxycholesterol; 5.4 μM cholesterol
Sequence (Q9Y6A2 whole entry): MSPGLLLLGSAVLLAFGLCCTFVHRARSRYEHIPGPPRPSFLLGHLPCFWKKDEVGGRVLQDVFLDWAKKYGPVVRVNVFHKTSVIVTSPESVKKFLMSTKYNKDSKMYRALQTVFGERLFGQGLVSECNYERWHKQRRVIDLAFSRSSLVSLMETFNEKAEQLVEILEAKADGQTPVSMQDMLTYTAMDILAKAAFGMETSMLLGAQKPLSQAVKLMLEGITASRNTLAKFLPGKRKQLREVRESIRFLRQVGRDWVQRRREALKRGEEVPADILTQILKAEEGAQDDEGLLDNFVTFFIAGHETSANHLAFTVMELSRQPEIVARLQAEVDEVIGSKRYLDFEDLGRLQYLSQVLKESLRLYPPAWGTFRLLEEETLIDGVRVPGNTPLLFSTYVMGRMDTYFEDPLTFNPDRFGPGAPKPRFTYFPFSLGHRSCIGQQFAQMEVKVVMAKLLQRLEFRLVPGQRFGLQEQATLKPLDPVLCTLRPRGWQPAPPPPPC
assay.metric: pIC50
Answers are plain numbers, as −log10 of the molar value.

Problem: Fill in the blank: the reported pIC50 of C[C@@H](c1ncncc1F)[C@](O)(Cn1cncn1)c1ccc(F)cc1F [voriconazole] is ____.
Solution: 7.33

---

test: Brain levels of voriconazole; type: in vivo, C57/B6 J mice; details: male, C57/B6 J, mouse, brain; after 5 daily intraperitoneal injections (60 mg/kg body weight); read-out: level of voriconazole in the brain
assay.metric: concentration at 5 days (µM)
Give bare numbers, in µM.

Problem: # input compound: C[C@@H](c1ncncc1F)[C@](O)(Cn1cncn1)c1ccc(F)cc1F [voriconazole] ; wanted: its concentration at 5 days
Solution: 123
